- Tested on: CCRIS mutagenicity, Ames/micronucleus/aberration tests
- method.summary: CCRIS mutagenicity studies
- run.conditions: Test System: AMES SALMONELLA TYPHIMURIUM; Strain/Indicator: TA98; Metabolic Activation: RAT, LIVER, S-9, AROCLOR 1254; Method: STANDARD PLATE
Active and inactive are the calls of the source. How the calls were made is not given here.
A correct response names exactly one class from 1 for active, -1 for inactive

Problem: Each molecule tested received a call. Report the one for C=CCOc1ccccc1OCC(O)CNC(C)C (centres undefined) .
Solution: -1

Problem: Each molecule tested received a call. Report the one for ClCC(Cl)Cl .
Solution: -1

Problem: Each molecule tested received a call. Report the one for COc1cc2c(c3oc4cccc(O)c4c(=O)c13)[C@@H]1C=CO[C@@H]1O2 .
Solution: 1

Problem: Each molecule tested received a call. Report the one for Nc1ccccc1SCCSc1ccccc1N .
Solution: -1

Problem: Each molecule tested received a call. Report the one for Clc1cc(Cl)c(Cl)cc1Cl .
Solution: -1

Problem: Each molecule tested received a call. Report the one for Cc1cc(O)ccc1Cl .
Solution: -1

Problem: Each molecule tested received a call. Report the one for N#Cc1c(Cl)cccc1Cl .
Solution: -1

Problem: Each molecule tested received a call. Report the one for C=CC(=O)OCCOCCOC(=O)C=C .
Solution: -1

Problem: Each molecule tested received a call. Report the one for CCOCCO .
Solution: -1

Problem: Each molecule tested received a call. Report the one for CCCOc1cc(N=Nc2ccccc2)ccc1N=Nc1c(S(=O)(=O)O)cc2ccc(N)cc2c1O .
Solution: 1

Problem: Each molecule tested received a call. Report the one for C[C@H]1CCCC(=O)CCC/C=C/c2cc(O)cc(O)c2C(=O)O1 .
Solution: -1

Problem: Each molecule tested received a call. Report the one for COc1cc(N)c(OC)cc1N .
Solution: 1

Problem: Each molecule tested received a call. Report the one for O=C(/C=C/c1ccc([N+](=O)[O-])cc1)c1ccccc1 .
Solution: 1

Problem: Each molecule tested received a call. Report the one for C[C@H]1[C@H](C)CC[C@]2(C(=O)O[C@@H]3O[C@H](CO[C@@H]4O[C@H](CO)[C@@H](O[C@@H]5O[C@@H](C)[C@H](O)[C@@H](O)[C@H]5O)[C@H](O)[C@H]4O)[C@@H](O)[C@H](O)[C@H]3O)CC[C@]3(C)C(=CC[C@@H]4[C@@]5(C)C[C@@H](O)[C@H](O)[C@@](C)(CO)[C@@H]5CC[C@]43C)[C@H]12 .
Solution: -1

Problem: Each molecule tested received a call. Report the one for Nc1ccc(-c2ccc(N)cc2)cc1 .
Solution: 1

Problem: Each molecule tested received a call. Report the one for O=c1cc(-c2ccc(O)cc2)oc2cc(O)cc(O)c12 .
Solution: -1

Problem: Each molecule tested received a call. Report the one for O=c1oc2ccc([N+](=O)[O-])cc2c2ccccc12 .
Solution: 1

Problem: Each molecule tested received a call. Report the one for CC(C)(C)NCC(O)c1ccc(O)c(NC(N)=O)c1 (centres undefined) .
Solution: -1

Problem: Each molecule tested received a call. Report the one for CN(C)c1ccc(C(=C2C=CC(=N)C=C2)c2ccc(N(C)C)cc2)cc1 .
Solution: -1

Problem: Each molecule tested received a call. Report the one for Nc1c(S(=O)(=O)O)cc(NC2CCCCC2)c2c1C(=O)c1ccccc1C2=O .
Solution: -1

Problem: Each molecule tested received a call. Report the one for O=CN(O)c1ccc(Cl)c(Cl)c1 .
Solution: -1

Problem: Each molecule tested received a call. Report the one for Cc1cc(Cl)ccc1O .
Solution: 1

Problem: Each molecule tested received a call. Report the one for Cc1c(N)c(=O)n(-c2ccccc2)n1C .
Solution: -1

Problem: Each molecule tested received a call. Report the one for O=C(c1ccccc1)[C@H]1O[C@H]1c1ccc(F)cc1 .
Solution: -1
